target: Peroxisome proliferator-activated receptor delta (Homo sapiens); experiment: qHTS assay to identify small molecule agonists of the peroxisome proliferator-activated receptor delta (PPARd) signaling pathway (AID 743212); conditions: HEK293H PPARd-UAS-bla, beta-lactamase FRET ratio, 17 h; series mostly up to 62.6 µM;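 also: HEK293H cells with PPARd UAS beta-lactamase reporter GeneBLAzer system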
Records with an inconclusive call do not appear. Active and inactive are the calls of the source. Calls follow the shape of the full dose curve.
Outcome codes: yes (1) (active), no (0) (inactive)

[
  {
    "molecule": "C=CC(=O)[O-].C=CC(=O)[O-].[Zn+2]",
    "group-label": "no (0)"
  },
  {
    "molecule": "CCC1(CO)COCOC1",
    "group-label": "no (0)"
  },
  {
    "molecule": "CCC(C)COC(C)=O (stereo unspecified)",
    "group-label": "no (0)"
  },
  {
    "molecule": "CCCCCC[C@@H](O)C/C=C\\CCCCCCCC(=O)OCC(O)CO (stereo partly specified)",
    "group-label": "yes (1)"
  },
  {
    "molecule": "C/C=C/C=C/C=O",
    "group-label": "no (0)"
  },
  {
    "molecule": "CCC(OCCCOC)OC(C)=O (stereo unspecified)",
    "group-label": "no (0)"
  },
  {
    "molecule": "O=C(O)CCCCCCCCCCCBr",
    "group-label": "no (0)"
  },
  {
    "molecule": "COc1cc(N)c(Cl)cc1C(=O)NC1CCN(CCCOc2ccc(F)cc2)CC1OC (stereo unspecified)",
    "group-label": "no (0)"
  },
  {
    "molecule": "Cc1cccc(N(C)C(=S)Oc2ccc3c(c2)CCC3)c1",
    "group-label": "no (0)"
  },
  {
    "molecule": "Cc1ccc2c(Br)cc(Br)c(O)c2n1",
    "group-label": "no (0)"
  },
  {
    "molecule": "CN1CC(=O)N2[C@H](c3ccc4c(c3)OCO4)c3[nH]c4ccccc4c3C[C@@H]2C1=O",
    "group-label": "no (0)"
  }
]

====

assay: qHTS RealTime-Glo MT Cell Viability Assay in HepG2 cells - 24 hour (AID 1224867); conditions: RealTime-Glo luminescence; series mostly up to 76.8 µM; also: nearly all actives have a fitted effect of over 50% in size
Inconclusive results are not listed. Activity calls are given as the source filed them. The call rests on the fitted dose curve; in most records, active means well fitted cell-killing curve with a large enough effect in the repeat runs; inconclusive means weak or mixed curves; inactive means flat fitted curve, though single readings scatter.
Labels: 1.0 (active), 0.0 (inactive)

[
  {
    "compound": "O=C(O)C[C@H](NC(=O)OCc1ccccc1)C(=O)O",
    "group-label": 0.0
  },
  {
    "compound": "NC(=O)c1ccncc1",
    "group-label": 0.0
  },
  {
    "compound": "Cc1ccccc1S",
    "group-label": 0.0
  },
  {
    "compound": "C1C[C@@H]2[C@H]3CC[C@H](C3)[C@@H]2C1",
    "group-label": 0.0
  },
  {
    "compound": "Cc1cc2c(OCC(CNC(C)(C)C)OC(=O)c3ccccc3)cccc2[nH]1 (stereo not given)",
    "group-label": 0.0
  },
  {
    "compound": "CC1=C(CC=O)C(C)(C)CCC1",
    "group-label": 0.0
  },
  {
    "compound": "Brc1cc2ccccc2c2ccccc12",
    "group-label": 0.0
  },
  {
    "compound": "CC(C)(C)C(=O)C(=O)O",
    "group-label": 0.0
  },
  {
    "compound": "CC1CC(C)C(=O)C1=O (stereo not given)",
    "group-label": 0.0
  },
  {
    "compound": "C[C@@H]1CN(CCCn2c3ccccc3c3ccccc32)C[C@H](C)N1",
    "group-label": 1.0
  },
  {
    "compound": "CCCCCCCCN",
    "group-label": 0.0
  },
  {
    "compound": "O=C=Nc1cccc(C(F)(F)F)c1",
    "group-label": 0.0
  },
  {
    "compound": "CCCCCCC(C)(C)C(=O)O",
    "group-label": 0.0
  },
  {
    "compound": "CN1CCCN=C1COC(=O)C(O)(c1ccccc1)C1CCCCC1 (stereo not given)",
    "group-label": 0.0
  },
  {
    "compound": "CCCCCCCCC(CCCCCC)C(=O)O (stereo not given)",
    "group-label": 0.0
  }
]

====

biological target: Peroxisome proliferator-activated receptor delta (Homo sapiens) (UniProt Q03181); assay: qHTS assay to identify small molecule antagonists of the peroxisome proliferator-activated receptor delta (PPARd) signaling pathway (AID 743215); settings: HEK293H PPARd-UAS-bla, beta-lactamase FRET ratio, antagonist, 17 h; series mostly up to 62 µM;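 also: cells stimulated with agonist L165041 at 300 nM final during compound exposure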
Sequence (Q03181 whole entry, looked up): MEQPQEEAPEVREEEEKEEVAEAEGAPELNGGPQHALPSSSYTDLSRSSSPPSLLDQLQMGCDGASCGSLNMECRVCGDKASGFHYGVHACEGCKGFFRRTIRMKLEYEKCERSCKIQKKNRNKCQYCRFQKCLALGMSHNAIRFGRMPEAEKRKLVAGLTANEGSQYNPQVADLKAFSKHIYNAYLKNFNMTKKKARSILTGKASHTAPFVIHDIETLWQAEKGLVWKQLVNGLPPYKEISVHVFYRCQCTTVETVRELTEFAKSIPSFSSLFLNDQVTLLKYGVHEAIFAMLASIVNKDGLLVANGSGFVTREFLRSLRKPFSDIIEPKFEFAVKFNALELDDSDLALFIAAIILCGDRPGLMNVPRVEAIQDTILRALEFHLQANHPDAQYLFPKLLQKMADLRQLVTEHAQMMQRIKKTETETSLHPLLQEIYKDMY
Results filed as inconclusive are left out. Calls of active or inactive are those of the source. The call rests on the fitted dose curve; in most records, active means well fitted inhibition curve with a large enough effect in the signal ratio in the repeat runs (not every such curve was filed as active); inconclusive means weak or mixed curves, or effect the other way; inactive means no such curve, though single readings can be large or run the other way; the % refers to the signal ratio.
Outcome codes: active, inactive

[
  {
    "compound": "O=c1[nH]c2ccc(Cl)cc2o1",
    "group-label": "inactive"
  },
  {
    "compound": "CN1C(=O)OC(C)(C)C1=O",
    "group-label": "inactive"
  },
  {
    "compound": "O=C(CCc1ccc(O)cc1)c1c(O)cc(O)cc1O",
    "group-label": "inactive"
  },
  {
    "compound": "CCCCN(CCCC)C(C(N)=O)c1ccc(OC)cc1 (centres undefined)",
    "group-label": "inactive"
  },
  {
    "compound": "O=C1Cc2ccccc2N1c1c(Cl)cccc1Cl",
    "group-label": "inactive"
  },
  {
    "compound": "Oc1ccc(Cl)c2cccnc12",
    "group-label": "active"
  },
  {
    "compound": "O=C1NC(=O)c2cc([N+](=O)[O-])ccc21",
    "group-label": "inactive"
  },
  {
    "compound": "CCCCC(CC)CN (centres undefined)",
    "group-label": "inactive"
  },
  {
    "compound": "Cc1ccc(OC(=O)c2ccccc2O)cc1",
    "group-label": "inactive"
  },
  {
    "compound": "COc1cc(N)c(Cl)cc1C(=O)NC1CCN(CCCOc2ccc(F)cc2)CC1OC (centres undefined)",
    "group-label": "inactive"
  },
  {
    "compound": "C[C@H]1C[C@H](O)c2ccsc2S1(=O)=O",
    "group-label": "inactive"
  },
  {
    "compound": "C=C(C)C(=O)OCCCCCCCCCCCCC",
    "group-label": "inactive"
  },
  {
    "compound": "CCOC(=O)/C=C/C(=O)OCC",
    "group-label": "inactive"
  },
  {
    "compound": "Cc1cc(O)ccc1O",
    "group-label": "inactive"
  },
  {
    "compound": "CC(CC1c2ccccc2CCc2ccccc21)CN(C)C (centres undefined)",
    "group-label": "inactive"
  },
  {
    "compound": "COc1ccccc1N1CCN(CC(O)COc2cccc3ccccc23)CC1 (centres undefined)",
    "group-label": "inactive"
  },
  {
    "compound": "CC(=O)Oc1ccc([N+](=O)[O-])cc1CCl",
    "group-label": "inactive"
  },
  {
    "compound": "Oc1cccc(Nc2ccccc2)c1",
    "group-label": "inactive"
  },
  {
    "compound": "CCCCCCCC/C=C\\CCCCCCCCO",
    "group-label": "inactive"
  },
  {
    "compound": "COC(=O)CCS",
    "group-label": "inactive"
  },
  {
    "compound": "C[C@@H]1CN(CCCn2c3ccccc3c3ccccc32)C[C@H](C)N1",
    "group-label": "active"
  },
  {
    "compound": "Cc1ccccc1S",
    "group-label": "inactive"
  },
  {
    "compound": "COC(=O)C1=C(C)NC(C)=C(C(=O)O[C@@H]2CCCN(Cc3ccccc3)C2)[C@@H]1c1cccc([N+](=O)[O-])c1",
    "group-label": "inactive"
  },
  {
    "compound": "O=C(O)CCCCCCCCCCCBr",
    "group-label": "inactive"
  },
  {
    "compound": "CC[C@]1(O)C[C@H]2CN(CCc3c([nH]c4ccccc34)[C@@](C(=O)OC)(c3cc4c(cc3OC)N(C=O)[C@H]3[C@@](O)(C(=O)OC)[C@H](OC(C)=O)[C@]5(CC)C=CCN6CC[C@]43[C@@H]65)C2)C1",
    "group-label": "inactive"
  },
  {
    "compound": "O=C(CCCN1CC=C(n2c(=O)[nH]c3ccccc32)CC1)c1ccc(F)cc1",
    "group-label": "inactive"
  },
  {
    "compound": "CC1=C(Br)C(=O)C(Br)=C/C1=C(/c1ccccc1S(=O)(=O)O)c1cc(Br)c(O)c(Br)c1C",
    "group-label": "inactive"
  },
  {
    "compound": "CCCCCCCCCI",
    "group-label": "inactive"
  },
  {
    "compound": "CCOC(=O)c1ccc(OCCN2C[C@H](O)[C@@H](O)[C@H](O)[C@H]2CO)cc1",
    "group-label": "inactive"
  },
  {
    "compound": "C1C[C@@H]2[C@H]3CC[C@H](C3)[C@@H]2C1",
    "group-label": "inactive"
  },
  {
    "compound": "C=CC(C)(CCC=C(C)C)OC(=O)CC(C)C (centres undefined)",
    "group-label": "inactive"
  },
  {
    "compound": "CC(=O)c1ccc([N+](=O)[O-])cc1",
    "group-label": "inactive"
  },
  {
    "compound": "CCOC(=O)C1=C(C)NC(C)=C(C(=O)OC)C1c1cccc(Cl)c1Cl (centres undefined)",
    "group-label": "inactive"
  },
  {
    "compound": "CC(CCC(=O)O)C(=O)O (centres undefined)",
    "group-label": "inactive"
  },
  {
    "compound": "O=C1c2ccccc2C(=O)C1c1nc2ccccc2c(Br)c1O",
    "group-label": "inactive"
  },
  {
    "compound": "CC(C)=CCC/C(C)=C/CC/C(C)=C/CCC(=O)OC/C=C(\\C)CCC=C(C)C",
    "group-label": "inactive"
  },
  {
    "compound": "CC(CN(C)C)C(C)(O)Cc1ccc(Cl)cc1 (centres undefined)",
    "group-label": "inactive"
  },
  {
    "compound": "O=C(Nc1cccc2c(=O)cc(-c3nn[nH]n3)oc12)c1ccc(OCCCCc2ccccc2)cc1",
    "group-label": "inactive"
  },
  {
    "compound": "Cc1ccccc1N=C(N)Nc1ccccc1C",
    "group-label": "inactive"
  },
  {
    "compound": "COc1ccc(OC(=O)N(CC(=O)O)Cc2ccc(OCCc3nc(-c4ccccc4)oc3C)cc2)cc1",
    "group-label": "inactive"
  },
  {
    "compound": "CC(=O)Nc1cc(S(=O)(=O)O)cc2cc(S(=O)(=O)O)c(N=Nc3ccccc3)c(O)c12",
    "group-label": "inactive"
  },
  {
    "compound": "O=C(O)c1ccc(OCCCOc2ccc(C(=O)O)cc2)cc1",
    "group-label": "inactive"
  },
  {
    "compound": "CCOC(C)=O",
    "group-label": "inactive"
  },
  {
    "compound": "C[C@]12CC[C@@H]3c4ccc(O)cc4CC[C@H]3[C@@H]1CC[C@@H]2OC(=O)CCC1CCCC1",
    "group-label": "inactive"
  },
  {
    "compound": "CN1CCCC(n2nc(Cc3ccc(Cl)cc3)c3ccccc3c2=O)CC1 (centres undefined)",
    "group-label": "inactive"
  },
  {
    "compound": "COc1ccccc1N1CCN(CCCCNC(=O)c2ccc(-c3ccc(C(C)=O)cc3)cc2)CC1",
    "group-label": "inactive"
  },
  {
    "compound": "c1ccc2sc(SN(C3CCCCC3)C3CCCCC3)nc2c1",
    "group-label": "inactive"
  },
  {
    "compound": "O=C(O)C[C@H](NC(=O)OCc1ccccc1)C(=O)O",
    "group-label": "inactive"
  },
  {
    "compound": "CC(C)(C)C(=O)C(=O)O",
    "group-label": "inactive"
  }
]
